# method_notes: yeast display, Sf9 membrane polyspecificity reagent, FACS + sequencing; frameworks hold sequencing errors
measured_metric: polyreactivity (PSR sort gate)

QVQLGESGGGIVQAGGSLRLSCAASAFIIKYYAMGWYRPAPGKETELVAAIDGSSASTYYADSVKGRFTISRDNAKNTVYLQMNSLKPEDTAVYYCAVARLRRGGVQYGYWGQGTQVTVSS | high polyreactivity
QVHLVESVGGLVQAGGSLRLSCAASGSTFIYYAMVRYRQAPGKERELVASISRSGGSTYYADSVKGRFTISRDNAKNTVYLQMNSLKPEDTAFYYCARAYRSSFNYWGQGTQVTVSS | high polyreactivity
QVQLVESGGGLVQGGGSLRLSCAASGRIFGVNAMGWYRQAPGKERELVATITSGTSTYYADSVKGRFTIARDNATTTVYLQITSLKPEDTAVYYSATSRVIPWDYDSWGQGTQVTVSS | low polyreactivity
QVQLVESGGGIVQAGGSLSLSCRACGRSFAFYSMGWYRQEPGKERELVAAITRTGSTSYADSVNGRFTISRDNAKNTVYLQMNSLKPEDTAVYYCATVGYPYTLWHQMVYWGQGTQVTVSS | low polyreactivity

Please look at the following sequence next.
Lab book: polyreactivity (PSR sort gate) of QVQLVESGGGLFQEGGSLRLSCAPSGSTLVFYAMGWYRHAPGKERELVAAITRSGGSTYYADSVKGRFTISRDNAKNTVYLQRNSLKPEDTAVYNCAADERYINERVSWGQGTQVTVSS noted as low polyreactivity
